biological target: Factor X (FX), P00742
Sequence (P00742 whole entry, looked up): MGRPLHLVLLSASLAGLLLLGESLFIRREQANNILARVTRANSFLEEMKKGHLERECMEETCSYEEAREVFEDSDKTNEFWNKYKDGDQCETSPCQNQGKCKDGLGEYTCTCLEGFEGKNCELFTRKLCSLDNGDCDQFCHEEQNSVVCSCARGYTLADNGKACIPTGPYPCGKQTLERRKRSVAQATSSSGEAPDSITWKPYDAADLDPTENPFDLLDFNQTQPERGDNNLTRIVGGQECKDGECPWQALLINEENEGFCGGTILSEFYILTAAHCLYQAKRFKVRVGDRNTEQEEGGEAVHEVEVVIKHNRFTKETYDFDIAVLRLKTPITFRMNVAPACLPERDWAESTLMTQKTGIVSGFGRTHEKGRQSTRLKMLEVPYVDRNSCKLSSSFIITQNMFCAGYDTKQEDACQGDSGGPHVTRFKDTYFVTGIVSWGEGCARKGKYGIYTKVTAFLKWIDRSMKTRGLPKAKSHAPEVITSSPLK
metric: kcat/KM (M⁻¹ s⁻¹)
Please respond with the number in M⁻¹ s⁻¹ and leave the unit unwritten.

INSERT INTO measurements (protein, numeric_readout) VALUES
  ('FIXa variant Y155F/R318Y/R338E/R403E (protein) chain 1: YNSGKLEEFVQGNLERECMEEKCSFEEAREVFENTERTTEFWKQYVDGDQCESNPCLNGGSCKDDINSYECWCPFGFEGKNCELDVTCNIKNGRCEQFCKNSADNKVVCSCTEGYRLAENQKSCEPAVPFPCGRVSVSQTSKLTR chain 2: VVGGEDAKPGQFPWQVVLNGKVDAFCGGSIVNEKWIVTAAHCVETGVKITVVAGEHNIEETEHTEQKRNVIRIIPHHNYNAAINKYNHDIALLELDEPLVLNSYVTPICIADKEYTNIFLKFGSGYVSGWGRVFHKGYSALVLQYLRVPLVDRATCLESTKFTIYNNMFCAGFHEGGRDSCQGDSGGPHVTEVEGTSFLTGIISWGEECAMKGKYGIYTKVSEYVNWIKEKTKLT', '8.7e+07');

Next:
protein FIXa-K247N/N249S/R318Y/R338E/R403E/E410N (protein) chain 1: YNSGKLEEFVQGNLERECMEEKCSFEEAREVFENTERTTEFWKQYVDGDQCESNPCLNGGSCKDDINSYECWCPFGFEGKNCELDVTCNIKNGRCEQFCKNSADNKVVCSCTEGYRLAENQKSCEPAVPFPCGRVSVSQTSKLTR chain 2: VVGGEDAKPGQFPWQVVLNGKVDAFCGGSIVNEKWIVTAAHCVETGVKITVVAGEHNIEETEHTEQNRSVIRIIPHHNYNAAINKYNHDIALLELDEPLVLNSYVTPICIADKEYTNIFLKFGSGYVSGWGRVFHKGYSALVLQYLRVPLVDRATCLESTKFTIYNNMFCAGFHEGGRDSCQGDSGGPHVTEVEGTSFLTGIISWGEECAMKGKYGIYTKVSEYVNWIKNKTKLT , kcat/KM observed: 1.5e+08
